src = PubChem BioAssay (Tox21)

Target: Acetylcholinesterase (Homo sapiens) (UniProt P22303)
Sequence (P22303 whole entry, looked up): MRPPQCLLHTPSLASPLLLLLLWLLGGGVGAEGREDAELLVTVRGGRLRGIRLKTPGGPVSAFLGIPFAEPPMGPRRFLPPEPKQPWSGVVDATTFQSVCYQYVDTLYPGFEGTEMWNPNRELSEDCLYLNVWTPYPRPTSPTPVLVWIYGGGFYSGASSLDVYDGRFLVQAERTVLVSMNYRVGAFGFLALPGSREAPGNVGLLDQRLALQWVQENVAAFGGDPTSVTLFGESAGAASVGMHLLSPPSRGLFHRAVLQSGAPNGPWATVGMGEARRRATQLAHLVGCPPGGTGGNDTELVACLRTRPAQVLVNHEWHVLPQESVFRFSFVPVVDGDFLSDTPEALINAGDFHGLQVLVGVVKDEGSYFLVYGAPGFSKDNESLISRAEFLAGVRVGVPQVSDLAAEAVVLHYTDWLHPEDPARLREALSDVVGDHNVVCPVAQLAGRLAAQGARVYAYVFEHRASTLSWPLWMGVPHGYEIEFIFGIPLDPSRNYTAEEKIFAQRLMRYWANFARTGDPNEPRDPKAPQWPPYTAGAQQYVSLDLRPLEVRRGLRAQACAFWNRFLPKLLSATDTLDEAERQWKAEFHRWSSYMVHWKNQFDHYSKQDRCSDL
Assay: Acetylcholinesterase (AChE) small molecule antagonists: enzyme-based qHTS assay (AID 1347397); further: nearly all actives have a fitted effect of over 55% in size
Conditions: AChE enzyme activity inhibition; series mostly up to 115 µM
From the text: National Center for Advancing Translational Sciences [NCATS] Division of Preclinical Innovation [DPI] U.S. Environmental Protection Agency [EPA] National Institutes of Environmental Health Sciences [NIEHS] National Toxicology Program [NTP] U.S. Food and Drug Administration [FDA] Acetylcholinesterase (AChE) is the primary cholinesterase in the body that hydrolyzes a key neurotransmitter, acetylcholine. Inhibition of AChE activity can lead to neurotoxicity. […]
The source made the active and inactive calls. The call rests on the fitted dose curve.
ASSAY METRIC: outcome

COMPOUND: CCCC(=O)OCC(COC(=O)CCC)OC(=O)CCC
EXPERIMENTAL VALUE: inactive
//
COMPOUND: CC12CCC(CC1=O)C2(C)C (centres undefined)
EXPERIMENTAL VALUE: inactive
//
COMPOUND: O=C1c2ccccc2CCc2ccccc21
EXPERIMENTAL VALUE: inactive
//
COMPOUND: O=C(O)CN(CC(=O)O)CC(=O)O
EXPERIMENTAL VALUE: inactive
//
COMPOUND: CCCCC(CC)COC(=O)c1ccc(C(=O)OCC(CC)CCCC)cc1 (centres undefined)
EXPERIMENTAL VALUE: inactive
//
COMPOUND: Cl[Si](Cl)(c1ccccc1)c1ccccc1
EXPERIMENTAL VALUE: inactive
//
COMPOUND: N#Cc1cc([N+](=O)[O-])ccc1N
EXPERIMENTAL VALUE: inactive
//
COMPOUND: O=C(CCNNC(=O)c1ccncc1)NCc1ccccc1
EXPERIMENTAL VALUE: inactive
//
COMPOUND: CCC(C)C=O (centres undefined)
EXPERIMENTAL VALUE: inactive
//
COMPOUND: CCCCN1CCCC[C@H]1C(=O)Nc1c(C)cccc1C
EXPERIMENTAL VALUE: inactive
//
COMPOUND: C=C(C)C(=O)OCCOCCOCCOCCOC(=O)C(=C)C
EXPERIMENTAL VALUE: inactive
//
COMPOUND: Cc1c(NC(=O)c2cccnc2)c(=O)n(-c2ccccc2)n1C
EXPERIMENTAL VALUE: inactive
//
COMPOUND: COC(=O)Nc1nc2ccc(Sc3ccccc3)cc2[nH]1
EXPERIMENTAL VALUE: inactive
//
COMPOUND: CCCOCCC
EXPERIMENTAL VALUE: inactive
